- Tested on: RPMI-8226 leukemia
- Measurement protocol: NCI tumour cell line growth inhibition, 48 h
Where a SMILES comes first, the peptide text is derived from it. The star is where a group is joined. Boc = CC(C)(C)OC(=O)*; OBn = c1ccc(CO*)cc1
Quantity name: TGI

Compound: Cn1cc(-c2ccc(-c3cn(C)c4ccc(Cl)cc34)s2)c2cc(Cl)ccc21
Observed: > 100 µM
//
Compound: CCOC(=O)c1nc(Nc2ccc(Cl)cc2)c2ccccc2n1
Observed: 30.2 µM
//
Compound: CC(NC(=O)C(Cc1ccccc1)NC(=O)C(Cc1ccccc1)NC(=O)OC(C)(C)C)C(=O)OCc1ccccc1 (stereo not drawn) (Boc-Phe-Phe-Ala-OBn; configuration not given here)
Observed: > 100 µM
//
Compound: CCOc1cc2c(cc1O)/C(=N/NS(=O)(=O)c1ccc(C)cc1)C[C@@H]1[C@@H]2CC[C@]2(C)[C@@H](O)CC[C@@H]12
Observed: 16 µM
//
Compound: CCN1C(=O)N(CC)C2C1NN=c1s/c(=C\c3cc4ccccc4[nH]3)c(=O)n12 (configuration not stated)
Observed: 2.19 µM
//
Compound: O=C1Nc2ccccc2/C1=C/c1c(Cl)[nH]c2ccc(O)cc12
Observed: 14.1 µM
//
Compound: CS/C(C)=N/OC(=O)NCCCCNc1ccc(N=[N+]=[N-])cc1
Observed: > 100 µM
//
Compound: CCOP(=O)(CN=C(c1ccccc1)c1ccccc1)OCC
Observed: > 100 µM
//
Compound: C=C1CCC2C3(C)COC(c4ccccc4Br)OC3CCC2(C)C1C/C=C1/C(=O)OCC1OC(C)=O (configuration not stated)
Observed: 6.52 µM
//
Compound: COc1ccc(-c2nn(-c3cccc(Cl)c3)cc2-c2cc(-c3ccccc3)nc(N)n2)cc1
Observed: 9.17 µM
//
Compound: Clc1nc(NCCc2ccccc2)c2ncn(-c3ccccc3)c2n1
Observed: 47.3 µM
//
Compound: c1ccc2cc(CNCCOCCOCCNCc3ccc4ccccc4c3)ccc2c1
Observed: 4.31 µM
//
Compound: CCOC(=O)c1nc(-c2ccccc2)oc1OCC
Observed: > 100 µM
//
Compound: C=CCNC(=O)NCCCC(NC(C)=O)C(=O)NCc1ccccc1 (configuration not stated)
Observed: > 100 µM
//
Compound: C/C=C/[C@@H]1OC(=O)C2=C[C@@H](O)[C@@H](/C=C/C)O[C@H]21
Observed: 3.76 µM
//
Compound: COC(=O)[C@@]12C(=O)C(C)C(=O)[C@]1(C)C(C)=C[C@H]1[C@]3(C=O)CC[C@H](OC(C)=O)C(C)(C)[C@H]3CC[C@@]12C (some centres not stated)
Observed: > 100 µM
//
Compound: COc1cc(C2C3=C(COC3=O)Nc3cc4c(cc32)CCC4)cc2c1OCO2 (configuration not stated)
Observed: > 49.2 µM
//
Compound: C=CCCCC1CCCNC1=S (configuration not stated)
Observed: > 100 µM
//
Compound: CC(C)(C)OC(=O)N/N=C(/N)Cc1ccccc1
Observed: > 100 µM
//
Compound: c1ccc(CSc2nnc3c4ccccc4c4ccccc4c3n2)cc1
Observed: > 100 µM
//
Compound: NNCCc1n[nH]c(=O)n1N
Observed: > 100 µM
//
Compound: COC(=O)C1=C(C(=O)OC)SC(=C(N=Nc2ccccc2)c2ccccc2)S1
Observed: > 100 µM
//
Compound: CCC1CCc2c(OC)ccc(OCC(=O)O)c2C1=O (configuration not stated)
Observed: > 100 µM
//
Compound: CCCCCCCOc1c(OC)cc(C2CC(=O)Nc3c2c(C)nn3-c2nc3ccccc3[nH]2)cc1OC (configuration not stated)
Observed: > 100 µM
//
Compound: FC(F)(F)c1ccc(-c2cnc(Cl)nc2NCc2cc(C(F)(F)F)cc(C(F)(F)F)c2)cc1
Observed: > 100 µM
//
Compound: Cc1ccc(-c2c(C#N)c(N)nc3c2CCS(=O)(=O)c2ccccc2-3)cc1
Observed: > 100 µM
//
Compound: CC(C)C/C=C/C1=NN(c2cccc(S(=O)(=O)O)c2)C2(C1)SCC(=O)N2c1nc2ccccc2s1 (configuration not stated)
Observed: 49.6 µM
//
Compound: CC(c1ccccc1)/[N+]([O-])=C/c1ccccc1 (configuration not stated)
Observed: > 100 µM
//
Compound: O=C1CCC2(c3ccccc3)Nc3ncccc3N12 (configuration not stated)
Observed: > 100 µM
//
Compound: C[n+]1cccc2ccc(OC(=O)c3ccccc3)cc21
Observed: > 100 µM
//
Compound: CC1(C)CC[C@]2(C(=O)N3CCOCC3)CC[C@]3(C)C(=CC[C@@H]4[C@@]5(C)C/C(=C/c6ccncc6)C(=O)C(C)(C)[C@@H]5CC[C@]43C)[C@@H]2C1
Observed: 3.36 µM
//
Compound: C=C=C(Sc1ccccc1)C(C)(C)OC(C)=O
Observed: > 100 µM
//
Compound: COc1cc2c(cc1OC)C(C)N(C)c1c-2c(OC(C)=O)cc2cc(OC)c(OC)cc12 (configuration not stated)
Observed: > 59 µM
//
Compound: CC(=O)NC1CC2Oc3ccc(C)cc3C(C)(O2)C1O (configuration not stated)
Observed: > 100 µM
//
Compound: C[C@@H](NC1CCC[C@H]1O)c1ccccc1 (some centres not stated)
Observed: > 100 µM
//
Compound: CCOc1cc2c(cc1OC(C)=O)C(=O)CC[C@H]1C3CC[C@H](OC(C)=O)[C@@]3(C)CC[C@H]21 (some centres not stated)
Observed: > 100 µM
//
Compound: CCC(=O)N(O)C(C)(C)C
Observed: > 100 µM
//
Compound: C1CCOC2(CCC3(CC2)OCCCCO3)OC1
Observed: > 100 µM
//
Compound: CC(C)/C(Cl)=N\OC(=O)Nc1ccc(F)cc1F
Observed: 75.2 µM
//
Compound: Cc1ccc2c(C)c3ccc4ccccc4c3c[n+]2c1
Observed: 64.8 µM
//
Compound: CC(=O)O[C@H]1CCn2c3c(c(C)c21)C(=O)C(N1CC1)=C(C)C3=O
Observed: > 10 µM
//
Compound: Cc1ccc2c(c1)C(=O)c1c-2n(CCCBr)c(=O)c2cc([N+](=O)[O-])ccc12
Observed: > 100 µM

Data provenance: PubChem BioAssay (NCI)
